Biological target: T1, human LIV-1 (human, UniProt Q13433 29-755)
T1 construct: whole, on cells; also called H-LIV1
T1 sequence (looked up): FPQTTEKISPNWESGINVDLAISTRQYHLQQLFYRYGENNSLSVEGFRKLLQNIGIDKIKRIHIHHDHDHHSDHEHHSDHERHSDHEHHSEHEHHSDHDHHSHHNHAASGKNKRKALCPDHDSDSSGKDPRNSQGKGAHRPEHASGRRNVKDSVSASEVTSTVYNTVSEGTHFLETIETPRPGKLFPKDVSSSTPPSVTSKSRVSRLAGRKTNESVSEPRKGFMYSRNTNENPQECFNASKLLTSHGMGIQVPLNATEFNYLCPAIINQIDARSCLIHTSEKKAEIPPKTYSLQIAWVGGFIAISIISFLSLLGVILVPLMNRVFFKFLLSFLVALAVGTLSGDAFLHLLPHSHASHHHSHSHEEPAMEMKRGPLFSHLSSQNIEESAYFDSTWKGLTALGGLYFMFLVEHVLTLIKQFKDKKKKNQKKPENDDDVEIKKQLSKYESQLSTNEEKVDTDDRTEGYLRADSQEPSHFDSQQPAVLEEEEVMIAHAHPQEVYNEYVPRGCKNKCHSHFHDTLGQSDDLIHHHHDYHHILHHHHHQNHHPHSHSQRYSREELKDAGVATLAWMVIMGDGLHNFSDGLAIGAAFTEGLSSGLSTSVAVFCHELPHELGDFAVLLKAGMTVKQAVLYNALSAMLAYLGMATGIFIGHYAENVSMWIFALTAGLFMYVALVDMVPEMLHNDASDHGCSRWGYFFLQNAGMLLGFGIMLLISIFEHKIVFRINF
Test: FACS, BT20/H_LIV-1 Low cells
parameter_measured: Top (MFI)
Give bare numbers, in MFI.

Previously resolved entries follow.
1. 124H4D11.p2.z4-MMAE (antibody, V domains shown, MMAE drug moiety conjugated; site and chain not stated, Antibody-drug conjugate of 124H4D11.p2.z4; human gamma 1/kappa) VH: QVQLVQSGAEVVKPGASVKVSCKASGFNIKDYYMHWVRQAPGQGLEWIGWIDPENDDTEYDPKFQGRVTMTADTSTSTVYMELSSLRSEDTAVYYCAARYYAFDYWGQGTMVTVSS VL: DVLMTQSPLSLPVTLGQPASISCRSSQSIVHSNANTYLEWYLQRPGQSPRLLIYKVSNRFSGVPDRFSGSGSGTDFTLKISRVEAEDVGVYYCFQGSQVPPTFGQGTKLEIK
3420
2. 5D6B10.Z7 (antibody, V domains shown) VH: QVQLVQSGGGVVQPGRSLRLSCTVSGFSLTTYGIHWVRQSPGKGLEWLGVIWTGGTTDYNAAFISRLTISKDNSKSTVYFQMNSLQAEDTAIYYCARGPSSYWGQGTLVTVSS VL: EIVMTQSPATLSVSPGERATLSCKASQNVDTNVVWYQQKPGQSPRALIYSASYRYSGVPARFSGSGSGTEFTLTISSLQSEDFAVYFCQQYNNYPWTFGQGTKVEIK
34700

Task: Hello, please tell me recorded Top (MFI) for this one: 124H4D11.p2.z4-Eribulin (antibody, V domains shown, Eribulin drug moiety conjugated; site and chain not stated, Antibody-drug conjugate of 124H4D11.p2.z4; human gamma 1/kappa) VH: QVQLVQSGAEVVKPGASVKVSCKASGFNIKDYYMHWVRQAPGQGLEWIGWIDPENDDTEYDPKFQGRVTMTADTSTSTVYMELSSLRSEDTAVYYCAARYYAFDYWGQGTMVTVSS VL: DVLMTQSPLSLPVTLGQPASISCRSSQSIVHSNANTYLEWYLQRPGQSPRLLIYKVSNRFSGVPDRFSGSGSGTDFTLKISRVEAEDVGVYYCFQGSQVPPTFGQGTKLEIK
Result: 3100
